Data provenance: ChEMBL document CHEMBL1158597

Measured log10(Ki) values are reported for all entries that follow.
experimental system: Kappa-type opioid receptor (Cavia porcellus, UniProt P41144)
Sequence (P41144 whole entry): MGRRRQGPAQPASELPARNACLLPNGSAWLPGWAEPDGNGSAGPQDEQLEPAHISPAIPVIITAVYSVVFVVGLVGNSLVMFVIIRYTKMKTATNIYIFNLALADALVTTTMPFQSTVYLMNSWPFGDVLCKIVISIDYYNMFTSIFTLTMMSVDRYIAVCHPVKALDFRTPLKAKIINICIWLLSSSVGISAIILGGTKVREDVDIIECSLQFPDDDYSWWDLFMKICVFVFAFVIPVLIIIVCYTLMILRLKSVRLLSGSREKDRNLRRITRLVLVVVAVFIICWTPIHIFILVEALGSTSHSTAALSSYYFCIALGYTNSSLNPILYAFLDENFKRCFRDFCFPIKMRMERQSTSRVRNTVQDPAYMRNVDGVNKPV
Please interpret these as log10 of Ki where Ki is in nM.

{"columns": ["compound string", "log10(Ki)"],
 "data": [
  ["O=C1CC[C@@]2(O)[C@H](NCC3CC3)Cc3ccc(O)c4c3[C@H]2[C@H]1O4", 1.84],
  ["CN(CC1CC1)[C@@H]1Cc2ccc(O)c3c2[C@@H]2[C@H]1CCC(=O)[C@@H]2O3", 0.94],
  ["O=C1CC[C@]23OCCN4CC[C@@]25c2c(ccc(O)c2O[C@@H]15)C[C@@H]43", 1.86],
  ["CN(CC1CC1)[C@@H]1Cc2ccc(O)c3c2[C@H]2[C@@H](O3)C(=O)CC[C@]21O", 0.71]
]}

Below: the item to evaluate.
Query string: Entry O=C1CC[C@@H]2[C@H]3c4c(ccc(O)c4O[C@@H]13)C[C@H]2NCC1CC1 has what log10(Ki)?
Result string: 1.51

====

assay details: Displacement of [3H]NTI from delta opioid receptor in Hartley guinea pig forebrain by liquid scintillation counter
Set-up: species or system Cavia porcellus
Catalogue of compounds with associated Ki
Write the answer as a number in µM, unit excluded.

{"columns": ["compound string", "measurement label", "numeric result"],
 "data": [
  ["CN(CC1CC1)[C@@H]1Cc2ccc(O)c3c2[C@H]2[C@@H](O3)C(=O)CC[C@]21O", "Ki", 0.0552]
]}

Query string: Which Ki is reported for this compound? CN(CC1CC1)[C@@H]1Cc2ccc(O)c3c2[C@@H]2[C@H]1CCC(=O)[C@@H]2O3
Result string: 0.272

====

Reported Ki values, Mu-type opioid receptor (Cavia porcellus, UniProt P97266).
Please give a number only; it is taken to be in nM.

{"columns": ["compound string", "result units", "Ki"],
 "data": [
  ["CN(CC1CC1)[C@@H]1Cc2ccc(O)c3c2[C@H]2[C@@H](O3)C(=O)CC[C@]21O", "nM", 1.17],
  ["CN(C)[C@@H]1Cc2ccc(O)c3c2[C@H]2[C@@H](O3)C(=O)CC[C@]21O", "nM", 8.95],
  ["CN[C@@H]1Cc2ccc(O)c3c2[C@@H]2[C@H]1CCC(=O)[C@@H]2O3", "nM", 164],
  ["CN(C)[C@@H]1Cc2ccc(O)c3c2[C@@H]2[C@H]1CCC(=O)[C@@H]2O3", "nM", 50.9],
  ["O=C1CC[C@]23OCCN4CC[C@@]25c2c(ccc(O)c2O[C@@H]15)C[C@@H]43", "nM", 86],
  ["O=C1CC[C@@]23OCCN(CC4CC4)[C@@H]2Cc2ccc(O)c4c2[C@H]3[C@H]1O4", "nM", 294]
]}

Query string: If you can, please state the reported Ki value of O=C1CC[C@@]2(O)[C@H](NCC3CC3)Cc3ccc(O)c4c3[C@H]2[C@H]1O4 .
Result string: 24.7

Query string: Lookup CN(CC1CC1)[C@@H]1Cc2ccc(O)c3c2[C@@H]2[C@H]1CCC(=O)[C@@H]2O3
Result string: 3.36

Query string: Next entry: O=C1CC[C@@H]2[C@H]3c4c(ccc(O)c4O[C@@H]13)C[C@H]2NCC1CC1
Result string: 30.3

Query string: Cool, now CN[C@@H]1Cc2ccc(O)c3c2[C@H]2[C@@H](O3)C(=O)CC[C@@]12O
Result string: 118

====

Recorded IC50 for the following compounds
assay details: Displacement of [3H]NTI from delta opioid receptor in Hartley guinea pig forebrain by liquid scintillation counter
Set-up: species or system Cavia porcellus

Consider the worked cases shown below.
{"columns": ["compound string", "IC50"],
 "data": [
  ["CN[C@@H]1Cc2ccc(O)c3c2[C@H]2[C@@H](O3)C(=O)CC[C@@]12O", "> 1 µM"],
  ["O=C1CC[C@]23OCCN4CC[C@@]25c2c(ccc(O)c2O[C@@H]15)C[C@@H]43", "> 1 µM"],
  ["O=C1CC[C@@H]2[C@H]3c4c(ccc(O)c4O[C@@H]13)C[C@H]2NCC1CC1", "> 1 µM"],
  ["O=C1CC[C@@]2(O)[C@H](NCC3CC3)Cc3ccc(O)c4c3[C@H]2[C@H]1O4", "> 1 µM"]
]}

Here is the next item to consider.
Query string: Which IC50 value belongs to CN[C@@H]1Cc2ccc(O)c3c2[C@@H]2[C@H]1CCC(=O)[C@@H]2O3 ?
Result string: > 1 µM
